Data origin: patent US20100068150A1

# test_target: FL-C7 (full-length caspase-7) (Homo sapiens)
# Construct: the p37 band as the full-length caspase-7 with intact N-terminus (FL-C7); endogenous in cells
# assay_details: Inhibitor specificity in hypotonic 293 extracts, full-length caspase-7
# Assay type: biochemical
# measurement_parameters: inhibitor 20 μM for 5 min, then KMB01 30 min
metric: inhibition of FL-C7 labeling

1) Cc1cccc(C)c1C(=O)OCC(=O)[C@H](CC(=O)O)NC(=O)[C@@H](NC(=O)[C@H](CCC(=O)O)NC(=O)Cc1ccc(O)c([N+](=O)[O-])c1)C(C)C [AB45, Np-E-V- D-AOMK] | almost totally inhibited
2) Cc1cccc(C)c1C(=O)OCC(=O)[C@H](CC(=O)O)NC(=O)[C@@H](NC(=O)[C@H](CCC(=O)O)NC(=O)[C@H](CC(=O)O)NC(=O)Cc1ccc(O)c([N+](=O)[O-])c1)C(C)C [AB09, Np-D-E- V-D-DMBA] | almost totally inhibited

---

# test_target: Caspase-9 (Homo sapiens)
# Sequence (P55211 1-416): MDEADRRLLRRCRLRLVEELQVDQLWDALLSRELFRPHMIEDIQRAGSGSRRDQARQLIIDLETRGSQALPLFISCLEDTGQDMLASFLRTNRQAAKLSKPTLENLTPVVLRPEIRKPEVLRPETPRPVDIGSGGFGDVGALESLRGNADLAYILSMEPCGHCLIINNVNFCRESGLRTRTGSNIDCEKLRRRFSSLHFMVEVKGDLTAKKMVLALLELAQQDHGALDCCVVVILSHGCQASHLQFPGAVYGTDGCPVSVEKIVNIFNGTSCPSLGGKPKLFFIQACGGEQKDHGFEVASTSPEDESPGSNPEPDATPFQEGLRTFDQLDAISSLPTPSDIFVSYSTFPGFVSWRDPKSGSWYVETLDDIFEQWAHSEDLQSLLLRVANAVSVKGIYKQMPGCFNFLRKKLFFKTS
# assay_details: Kinetic compound screening, progress curve method, caspase-9
# Format: biochemical
# measurement_parameters: Table III; Ki(app) = Kass or Kobs/I; 50 nM active caspase-9; NI = no inhibition at concentrations tested
metric: Ki(app) Caspase-9

1) Cc1cccc(C)c1C(=O)OCC(=O)[C@H](CC(=O)O)NC(=O)[C@@H](NC(=O)[C@H](CCC(=O)O)NC(=O)[C@H](Cc1ccc(I)cc1)NC(=O)Cc1ccc(O)c([N+](=O)[O-])c1)C(C)O (some centres unmarked) | 12,320 M^−1s^−1
2) CCC(C)C(NC(=O)Cc1ccc(O)c([N+](=O)[O-])c1)C(=O)NC(Cc1ccccc1)C(=O)N1CCCC1C(=O)N[C@@H](CC(=O)O)C(=O)COC(=O)c1c(C)cccc1C (some centres unmarked) | 44,709 M^−1s^−1

Given the molecule Cc1cccc(C)c1C(=O)OCC(=O)[C@H](CC(=O)O)NC(=O)[C@H](C)NC(=O)[C@H](CC(C)C)NC(=O)C1CCCN1C(=O)Cc1ccc([N+](=O)[O-])c(O)c1 (some centres unmarked) , what is its reported Ki(app) Caspase-9?
18,004 M^−1s^−1

---

# test_target: Caspase-3 (Homo sapiens, UniProt P42574)
# assay_details: Kinetic compound screening, progress curve method, caspase-3
# Type: biochemical
# measurement_parameters: Table IV
The entries below are paired with their reported Caspase-3 Ki(app).

1) Cc1cccc(C)c1C(=O)OCC(=O)[C@H](CC(=O)O)NC(=O)[C@@H](NC(=O)[C@H](Cc1ccncc1)NC(=O)[C@H](CC(=O)O)NC(=O)Cc1ccc(O)c([N+](=O)[O-])c1)C(C)C | 7,456,511 M-1s-1

Next compound, please.
Form field: reported Caspase-3 Ki(app) of `Cc1cccc(C)c1C(=O)OCC(=O)[C@H](CC(=O)O)NC(=O)[C@@H](NC(=O)[C@@H](NC(=O)[C@H](CC(=O)O)NC(=O)Cc1ccc(O)c([N+](=O)[O-])c1)c1ccccc1)C(C)C`
3,416,050 M-1s-1

---

# test_target: Caspase-7 (Homo sapiens, UniProt P55210)
# Sequence (P55210 whole entry): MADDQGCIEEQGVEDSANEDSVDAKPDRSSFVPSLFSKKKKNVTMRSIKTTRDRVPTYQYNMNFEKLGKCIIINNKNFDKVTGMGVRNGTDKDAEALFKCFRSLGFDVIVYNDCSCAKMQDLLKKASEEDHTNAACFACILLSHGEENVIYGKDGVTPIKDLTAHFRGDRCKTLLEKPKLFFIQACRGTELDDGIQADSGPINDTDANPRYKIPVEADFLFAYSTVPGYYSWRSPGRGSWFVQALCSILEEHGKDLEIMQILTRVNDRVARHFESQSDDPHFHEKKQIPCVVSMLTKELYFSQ
# assay_details: Kinetic compound screening, progress curve method, caspase-7
# Format: biochemical
# measurement_parameters: Table IV
# Description: Table III below presents Ki(app) values for select AB compounds. Ki(app) values (also called Kass or Kobs/I) represent the speed of inhibitor binding to a target enzyme. Units are [M^−1s^−1]. NI indicates no inhibition at concentrations tested. Parent compounds AB09, ABo8, and AB07 that include the optimal substrate specificity sequences for caspases-3, […] as determined by Thornberry and colleagues (Thornberry et al., 19970 are included between double lines. […]
metric: Caspase-7 Ki (app)

1. Cc1cccc(C)c1C(=O)OCC(=O)[C@H](CC(=O)O)NC(=O)[C@H](Cc1cc[nH]c1)NC(=O)[C@H](CCC(=O)O)NC(=O)[C@H](CC(C)C)NC(=O)Cc1ccc(O)c([N+](=O)[O-])c1 | 10,447 M-1s-1

What Caspase-7 Ki (app) value was documented for this compound, Cc1cccc(C)c1C(=O)OCC(=O)[C@H](CC(=O)O)NC(=O)[C@@H](NC(=O)C(CCC(=O)O)NC(=O)[C@H](Cc1ccc2ccccc2c1)NC(=O)Cc1ccc(O)c([N+](=O)[O-])c1)C(C)C (stereo partly drawn) ?
448,155 M-1s-1

// next record Cc1cccc(C)c1C(=O)OCC(=O)[C@H](CC(=O)O)NC(=O)C1CCCN1C(=O)[C@@H](CCC(=O)O)NC(=O)[C@H](CC(=O)O)NC(=O)Cc1ccc(O)c([N+](=O)[O-])c1 (stereo partly drawn)
199,341 M-1s-1

---

# test_target: Caspase-7 (Homo sapiens)
# assay_details: Kinetic compound screening, progress curve method, caspase-7
# Assay type: biochemical
# measurement_parameters: Table III; Ki(app) = Kass or Kobs/I; 5 nM active caspase-7
metric: Ki(app) Caspase-7

1) Cc1cccc(C)c1C(=O)OCC(=O)[C@H](CC(=O)O)NC(=O)[C@@H](NC(=O)C(CCC(=O)O)NC(=O)[C@H](Cc1ccc2ccccc2c1)NC(=O)Cc1ccc(O)c([N+](=O)[O-])c1)C(C)C (some centres unmarked) | 448,155 M^−1s^−1

Returns the measured Ki(app) Caspase-7 for the input compound. Input: CCC(C)C(NC(=O)Cc1ccc(O)c([N+](=O)[O-])c1)C(=O)N[C@@H](CC(C)C)C(=O)N1CSCC1C(=O)N[C@@H](CC(=O)O)C(=O)COC(=O)c1c(C)cccc1C (some centres unmarked)
69,317 M^−1s^−1

---

# test_target: Caspase-7 (Homo sapiens, UniProt P55210)
# assay_details: Kinetic compound screening, progress curve method, caspase-7
# Type: biochemical
# measurement_parameters: Table III; Ki(app) = Kass or Kobs/I; 5 nM active caspase-7
metric: Ki(app) Caspase-7

1. Cc1ccc(C[C@H](NC(=O)[C@H](CC(=O)O)NC(=O)Cc2ccc(O)c([N+](=O)[O-])c2)C(=O)N[C@H](C(=O)N[C@@H](CC(=O)O)C(=O)COC(=O)c2c(C)cccc2C)C(C)C)cc1 [AB12, Np-D-E-29-V-D-DMBA] | 783,840 M^−1s^−1

As a next step, examine the molecule that follows.
Data request, read-out Ki(app) Caspase-7, for CCC(C)C(NC(=O)Cc1ccc(O)c([N+](=O)[O-])c1)C(=O)N[C@@H](CC(C)C)C(=O)N[C@@H](C)C(=O)N[C@@H](CC(=O)O)C(=O)COC(=O)c1c(C)cccc1C (stereo partly drawn) [AB40, Np-I-L- A-D-AOMK]
11,256 M^−1s^−1

---

# test_target: UniProtKB P42574
# Sequence (P42574 29-175 limits assumed): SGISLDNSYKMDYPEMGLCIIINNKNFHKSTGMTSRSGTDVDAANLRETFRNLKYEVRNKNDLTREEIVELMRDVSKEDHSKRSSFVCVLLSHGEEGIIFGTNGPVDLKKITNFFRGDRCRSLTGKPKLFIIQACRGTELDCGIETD
# Sequence (P42574 176-277 limits assumed): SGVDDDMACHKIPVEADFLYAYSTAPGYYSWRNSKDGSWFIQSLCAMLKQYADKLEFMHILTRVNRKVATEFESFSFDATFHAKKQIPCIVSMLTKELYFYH
# assay_details: Kinetic compound screening, progress curve method, caspase-3
# Format: biochemical
# measurement_parameters: Table IV
# Caspase-3 Ki(app) per entry

1. Cc1cccc(C)c1C(=O)OCC(=O)[C@H](CC(=O)O)NC(=O)[C@H](Cc1cc[nH]c1)NC(=O)[C@H](CCC(=O)O)NC(=O)[C@H](CC(C)C)NC(=O)Cc1ccc(O)c([N+](=O)[O-])c1 | 75,295 M-1s-1
2. Cc1cccc(C)c1C(=O)OCC(=O)[C@H](CC(=O)O)NC(=O)C1CCCN1C(=O)[C@@H](CCC(=O)O)NC(=O)[C@H](CC(=O)O)NC(=O)Cc1ccc(O)c([N+](=O)[O-])c1 (stereo partly drawn) | 2,482,333 M-1s-1

Requested read-out: Caspase-3 Ki(app). Entry: Cc1cccc(C)c1C(=O)OCC(=O)[C@H](CC(=O)O)NC(=O)[C@@H](NC(=O)[C@H](CCC(=O)O)NC(=O)[C@H](CC(C)C)NC(=O)Cc1ccc(O)c([N+](=O)[O-])c1)C(C)O (stereo partly drawn)
127,835 M-1s-1

And for CCC(C)C(NC(=O)Cc1ccc(O)c([N+](=O)[O-])c1)C(=O)N[C@@H](CC(C)C)C(=O)N[C@@H](C)C(=O)N[C@@H](CC(=O)O)C(=O)COC(=O)c1c(C)cccc1C (stereo partly drawn) ?
261,470 M-1s-1

Could you do the same for `CC[C@H](NC(=O)[C@@H](CCC(=O)O)NC(=O)c1ccccc1N)C(=O)N[C@@H](CC(=O)O)C(=O)COC(=O)c1c(C)cccc1C` , please?
1,020,213 M-1s-1
